test system: Es-2; assay: Primary qHTS to identify gynecologic anti-cancer compounds using libraries of approved drugs and bioactive compounds (AID 1345084); conditions: Gynecologic cancer cell panel viability, ATPlite luminescence, 48 h; series mostly up to 57.5 µM; further: nearly all actives have a fitted effect of over 55% in size
Records with an inconclusive call do not appear. The source made the active and inactive calls. The call rests on the fitted dose curve; in most records, active means well fitted cell-killing curve with a large enough effect; inconclusive means small, poorly fitted or top-dose-only effect, or effect the other way; inactive means flat fitted curve, though single readings scatter.
Hi! Could you answer with just one of these? TRUE = active, FALSE = inactive

### Prompt Assay result, entry CN(Cc1cc(Br)cc(Br)c1N)C1CCCCC1 — outcome?
### Response FALSE

### Prompt Assay result, entry COc1ccc(-c2ccc3cc(C(=O)O)ccc3c2)cc1C12CC3CC(CC(C3)C1)C2 — outcome?
### Response FALSE

### Prompt Assay result, entry Nc1nc(N)nc(-c2cc(Cl)ccc2Cl)n1 — outcome?
### Response FALSE

### Prompt Assay result, entry CC(C)C[C@H](NC(=O)[C@H](CCc1ccccc1)NC(=O)CN1CCOCC1)C(=O)N[C@@H](Cc1ccccc1)C(=O)N[C@@H](CC(C)C)C(=O)[C@@]1(C)CO1 — outcome?
### Response TRUE

### Prompt Assay result, entry CC(C)(Sc1cc(C(C)(C)C)c(O)c(C(C)(C)C)c1)Sc1cc(C(C)(C)C)c(O)c(C(C)(C)C)c1 — outcome?
### Response FALSE

### Prompt Assay result, entry O=C(O)c1cc(=O)[nH]c(=O)[nH]1 — outcome?
### Response FALSE

### Prompt Assay result, entry Cc1noc(NS(=O)(=O)c2ccc(N)cc2)c1C — outcome?
### Response FALSE

### Prompt Assay result, entry CC(C)(C#N)c1cc(Cn2cncn2)cc(C(C)(C)C#N)c1 — outcome?
### Response FALSE

### Prompt Assay result, entry CCN(C)C(=O)Oc1cccc([C@H](C)N(C)C)c1 — outcome?
### Response FALSE

### Prompt Assay result, entry COc1ccc(C(=O)CC(=O)c2ccc(C(C)(C)C)cc2)cc1 — outcome?
### Response FALSE
